Test system: AN3CA
Test: 2D cell proliferation assay, AN3CA
Assay type: cell-based
Conditions: Homo sapiens, AN3-CA, 96 hours, CTG, read-out: Cell Line, IC50 AN3CA
Listed below: IC50 values for each entry.

Exercise: Fill blank: measured IC50 of the compound C=CC(=O)N1CCC2(CC=C(c3c(-c4cccc(F)c4)c4c(N)ncnc4n3C)CC2)CC1 is ____.
Solution: 30 to 100 nM

Exercise: Quick one: C=CC(=O)N1CCC2(CC=C(c3c(-c4cnc(OC)c(F)c4)c4c(N)ncnc4n3C)CC2)CC1
Solution: 10 to 30 nM

Exercise: Quick one: C=CC(=O)N1CCC2(CC=C(c3c(-c4ccc(OC5CC5)cc4)c4c(N)ncnc4n3C)CC2)CC1
Solution: 10 to 30 nM

Taken from patent US20260152503A1.
